Source listed as patent US12319672B2.

- assay-target: human Gal-1 (hGal-1)
- Sequence (P09382 2-135 limits assumed): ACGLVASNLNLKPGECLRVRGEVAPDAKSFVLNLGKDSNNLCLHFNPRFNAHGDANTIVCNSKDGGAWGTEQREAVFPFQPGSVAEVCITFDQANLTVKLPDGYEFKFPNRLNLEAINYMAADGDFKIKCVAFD
- assay-details: Competitive binding assay: binding of biotinylated hGal-1 to microplate-adsorbed asialofetuin (ASF)
- particulars: Activities on hGal-1; mean values of several measurements
pIC50: −log10 of the molar value.
Listing: pIC50 of selected compounds

compound	pIC50
CO[C@@H]1[C@@H](n2cc(-c3cc(F)c(F)c(F)c3)nn2)[C@@H](O)[C@@H](CO)O[C@@H]1Cc1cc(C2(C#N)CCCC2)on1	5.29
CO[C@@H]1[C@@H](n2cc(-c3cc(F)c(F)c(F)c3)nn2)[C@@H](O)[C@@H](CO)O[C@@H]1Cc1cc(C(C)(C)N)no1	5.69
CO[C@@H]1[C@@H](n2cc(-c3cc(F)c(F)c(F)c3)nn2)[C@@H](O)[C@@H](CO)O[C@@H]1Cc1cc(C(C)C)no1	5.63
COC1CCC(N2C[C@H](C[C@H]3O[C@H](CO)[C@H](O)[C@H](n4cc(-c5cc(F)c(F)c(F)c5)nn4)[C@H]3OC)OC2=O)CC1 (mixture of isomers)	4.93
CCOC(=O)N1CCC(c2cc(C[C@H]3O[C@H](CO)[C@H](O)[C@H](n4cc(-c5ccc(C)c(F)c5)nn4)[C@H]3OC)no2)CC1	5.53
CO[C@@H]1[C@@H](n2cc(-c3cc(F)c(F)c(Cl)c3)nn2)[C@@H](O)[C@@H](CO)O[C@@H]1Cc1cc(C2CCN(C(C)=O)CC2)on1	6.37
CO[C@@H]1[C@@H](n2cc(-c3ccc(F)c(F)c3F)nn2)[C@@H](O)[C@@H](CO)O[C@@H]1Cc1cc(C2(C#N)CCCC2)no1	6.03
CO[C@@H]1[C@@H](n2cc(-c3ccc(C)c(F)c3F)nn2)[C@@H](O)[C@@H](CO)O[C@@H]1Cn1cc(C(C)(C)C)nn1	5.82
CO[C@@H]1[C@@H](n2cc(-c3cc(F)c(F)c(F)c3)nn2)[C@@H](O)[C@@H](CO)O[C@@H]1Cc1cc(C2CCN(C(=O)OC(C)(C)C)C2)on1 (stereo partly drawn)	4.90
CC(C)(C)OC(=O)N1CCC(C2=NOC(C[C@H]3O[C@H](CO)[C@H](O)[C@H](n4cc(-c5cccc(C(F)(F)F)c5)nn4)[C@H]3O)C2)CC1 (stereo partly drawn)	5.54
CO[C@@H]1[C@@H](n2cc(-c3cc(F)c(F)c(F)c3)nn2)[C@@H](O)[C@@H](CO)O[C@@H]1Cc1cn(C2CCN(C(=O)NC(C)(C)C)CC2)nn1	7.17
CO[C@@H]1[C@@H](n2cc(-c3cc(F)c(F)c(F)c3)nn2)[C@@H](O)[C@@H](CO)O[C@@H]1Cc1cc(C2(O)CCC2)on1	5.31

====

- assay-target: human Gal-1 (hGal-1)
- assay-details: Competitive binding assay: binding of biotinylated hGal-1 to microplate-adsorbed asialofetuin (ASF)
- particulars: Activities on hGal-1; mean values of several measurements
endpoint-label: IC50

> print(dat)
                                   compound  endpoint.label   result
1  CO[C@@H]1[C@@H](n2cc(-c3ccc(F)c(F)c3F)nn2)[C@@H](O)[C@@H](CO)O[C@@H]1Cc1cc(C2CCCC2)on1            IC50  1.33 µM
2  CO[C@@H]1[C@@H](n2cc(-c3cc(F)c(F)c(F)c3)nn2)[C@@H](O)[C@@H](CO)O[C@@H]1Cc1cc(C2CCNCC2)sn1            IC50  4.16 µM
3  CO[C@@H]1[C@@H](n2cc(-c3ccc(C)c(F)c3F)nn2)[C@@H](O)[C@@H](CO)O[C@@H]1Cc1cc(C2CCC2O)on1 (stereo partly drawn) [Ex 1.346]            IC50  11.7 µM
4  CO[C@@H]1[C@@H](n2cc(-c3cc(F)c(F)c(F)c3)nn2)[C@@H](O)[C@@H](CO)O[C@@H]1CC1=NO[C@H](C2CCCCC2)C1            IC50  14.7 µM
5  COc1ccc(-c2cn([C@H]3[C@@H](O)[C@@H](CO)O[C@H](CC4CC(C5CCN(C(=O)OC(C)(C)C)CC5)=NO4)[C@@H]3O)nn2)cc1 (stereo partly drawn)            IC50  0.64 µM
6  O=c1cc(C2=NO[C@@H](C[C@H]3O[C@H](CO)[C@H](O)[C@H](n4cc(-c5cc(F)c(F)c(F)c5)nn4)[C@H]3O)C2)cc[nH]1            IC50  12.3 µM

====

- assay-target: human Gal-1 (hGal-1)
- assay-details: Competitive binding assay: binding of biotinylated hGal-1 to microplate-adsorbed asialofetuin (ASF)
- particulars: Activities on hGal-1; mean values of several measurements
- Description: Evaluation of Compound Inhibitory Activity (IC50) The inhibitory activity of compounds is determined in competitive binding assays. This spectrophotometric assay measures the binding of biotinylated human Gal-3 (hGal-3) or human Gal-1 (hGal-1), respectively, to a microplate-adsorbed glycoprotein, asialofetuin (ASF) (Proc Natl Acad Sci USA. 2013 Mar. 26; 110(13):5052-7.). […] The calculated IC50 values may fluctuate depending on the daily assay performance. […]
pIC50: −log10 of the molar value.
endpoint-label: pIC50

molecule	quantitative-result
CO[C@@H]1[C@@H](n2cc(-c3cc(F)c(F)c(F)c3)nn2)[C@@H](O)[C@@H](CO)O[C@@H]1Cc1cc(C2CCNC(=O)CC2)no1 (stereo partly shown) [Ex 1.337]	6.38
CO[C@@H]1[C@@H](n2cc(-c3cc(F)cc(F)c3)nn2)[C@@H](O)[C@@H](CO)O[C@@H]1Cc1cc(C2CCN(C(=O)OC(C)(C)C)CC2)on1 [Ex 1.122]	6.14
CO[C@@H]1[C@@H](n2cc(-c3cc(F)c(F)c(F)c3)nn2)[C@@H](O)[C@@H](CO)O[C@@H]1Cc1cc(C2(OC)CCCCC2)no1 [Ex 1.210]	5.56
CO[C@@H]1[C@@H](n2cc(-c3cc(F)c(F)c(F)c3)nn2)[C@@H](O)[C@@H](CO)O[C@H]1Cc1cn(C2CCN(C(C)=O)CC2)nn1 [Example 4.12]	5.52
CO[C@@H]1[C@@H](n2cc(-c3cc(F)c(F)c(F)c3)nn2)[C@@H](O)[C@@H](CO)O[C@@H]1Cc1cc(C2(C)CCCC2)no1 [Ex 1.286]	5.51
CO[C@@H]1[C@@H](n2cc(-c3cc(F)c(F)c(F)c3)nn2)[C@@H](O)[C@@H](CO)O[C@@H]1Cc1cc(C2CCN(C(=O)C(C)(C)C)CC2)on1 [Example 3.34]	5.82
CCCCO[C@@H]1[C@@H](n2cc(-c3cc(F)c(F)c(F)c3)nn2)[C@@H](O)[C@@H](CO)O[C@@H]1Cc1cc(C2CCN(C(=O)OC(C)(C)C)CC2)on1 [Example 2.20]	5.69
CO[C@@H]1[C@@H](n2cc(-c3cc(F)c(F)c(F)c3)nn2)[C@@H](O)[C@@H](CO)O[C@@H]1C[C@H]1CC(C2CCN(S(=O)(=O)C(C)C)CC2)=NO1 [Example 3.60]	5.29
CNC(=O)CO[C@@H]1[C@@H](n2cc(-c3cc(F)c(F)c(F)c3)nn2)[C@@H](O)[C@@H](CO)O[C@@H]1CC1CC(C2CCN(C(=O)OC(C)(C)C)CC2)=NO1 (mixture of isomers) [Example 2.35]	5.58
CO[C@@H]1[C@@H](n2cc(-c3cc(F)c(F)c(F)c3)nn2)[C@@H](O)[C@@H](CO)O[C@@H]1Cc1cc(C2CCN(C(=O)OC(C)(C)C)CC2)sn1 [Example 6.02]	5.71
CO[C@@H]1[C@@H](n2cc(-c3cc(F)c(F)c(F)c3)nn2)[C@@H](O)[C@@H](CO)O[C@@H]1Cc1cc(C(C)(C)O)no1 [Example 2.60]	5.13
CO[C@@H]1[C@@H](n2cc(-c3cc(F)c(F)c(F)c3)nn2)[C@@H](O)[C@@H](CO)O[C@@H]1Cc1cc(C2CCN(C)C(=O)C2)no1 (stereo partly shown) [Ex 1.90]	5.75
CO[C@@H]1[C@@H](n2cc(-c3cc(F)c(F)c(F)c3)nn2)[C@@H](O)[C@@H](CO)O[C@@H]1Cn1cc(C2CCN(C(=O)OCc3ccccc3)CC2)nn1 [Example 4.20]	6.28
Cc1ccc(-c2cn([C@H]3[C@@H](O)[C@@H](CO)O[C@H](Cc4cc(C(C)(C)C)no4)[C@@H]3OCc3cscn3)nn2)c(F)c1F [Example 2.54]	6.23
CCN(C)C(=O)N1CCC(c2cc(C[C@H]3O[C@H](CO)[C@H](O)[C@H](n4cc(-c5cc(F)c(F)c(F)c5)nn4)[C@H]3OC)no2)CC1 [Example 3.68]	5.61
CO[C@@H]1[C@@H](n2cc(-c3ccc(F)c(F)c3F)nn2)[C@@H](O)[C@@H](CO)O[C@@H]1Cc1cc(C2(O)CCCC2)on1 [Ex 1.234]	5.90
CO[C@@H]1[C@@H](n2cc(-c3ccc(C)c(F)c3F)nn2)[C@@H](O)[C@@H](CO)O[C@@H]1Cc1cc(C2CCCC2)on1 [Ex 1.240]	4.86
CO[C@@H]1[C@@H](n2cc(-c3cc(F)c(F)c(F)c3)nn2)[C@@H](O)[C@@H](CO)O[C@@H]1CC1CN(C2CCN(C(=O)CC(C)(C)C)CC2)C(=O)O1 (mixture of isomers) [Example 5.19]	5.86
CCC(=O)O[C@@H]1[C@@H](n2cc(-c3cc(F)c(F)c(F)c3)nn2)[C@@H](O)[C@@H](CO)O[C@@H]1Cc1cc(C2CCN(C(=O)OC(C)(C)C)CC2)on1 [Example 2.15]	5.67
OC[C@H]1O[C@H](Cc2cc(C3CCC(O)CC3)on2)[C@H](O)[C@@H](n2cc(-c3cc(F)c(F)c(F)c3)nn2)[C@H]1O (stereo partly shown) [Example 2.13]	5.70
CC(C)(C)OC(=O)N1CCC(C2=NOC(C[C@H]3O[C@H](CO)[C@H](O)[C@H](n4cc(-c5cc(F)c(Cl)c(F)c5)nn4)[C@H]3O)C2)CC1 (stereo partly shown) [Ex 1.101]	5.39
CO[C@@H]1[C@@H](n2cc(-c3ccc(Cl)c(F)c3F)nn2)[C@@H](O)[C@@H](CO)O[C@@H]1Cc1cc(C2(C)CC2)no1 [Ex 1.259]	6.21
